Just for reference, paper PMC4336329 is where these values come from.

target-or-test-system: human ether-à-go-go-related gene (hERG) potassium channel (human, UniProt Q12809);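 further: peak tail current of the secondary pulse compared with the same well before compound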
Sequence (Q12809 whole entry, looked up): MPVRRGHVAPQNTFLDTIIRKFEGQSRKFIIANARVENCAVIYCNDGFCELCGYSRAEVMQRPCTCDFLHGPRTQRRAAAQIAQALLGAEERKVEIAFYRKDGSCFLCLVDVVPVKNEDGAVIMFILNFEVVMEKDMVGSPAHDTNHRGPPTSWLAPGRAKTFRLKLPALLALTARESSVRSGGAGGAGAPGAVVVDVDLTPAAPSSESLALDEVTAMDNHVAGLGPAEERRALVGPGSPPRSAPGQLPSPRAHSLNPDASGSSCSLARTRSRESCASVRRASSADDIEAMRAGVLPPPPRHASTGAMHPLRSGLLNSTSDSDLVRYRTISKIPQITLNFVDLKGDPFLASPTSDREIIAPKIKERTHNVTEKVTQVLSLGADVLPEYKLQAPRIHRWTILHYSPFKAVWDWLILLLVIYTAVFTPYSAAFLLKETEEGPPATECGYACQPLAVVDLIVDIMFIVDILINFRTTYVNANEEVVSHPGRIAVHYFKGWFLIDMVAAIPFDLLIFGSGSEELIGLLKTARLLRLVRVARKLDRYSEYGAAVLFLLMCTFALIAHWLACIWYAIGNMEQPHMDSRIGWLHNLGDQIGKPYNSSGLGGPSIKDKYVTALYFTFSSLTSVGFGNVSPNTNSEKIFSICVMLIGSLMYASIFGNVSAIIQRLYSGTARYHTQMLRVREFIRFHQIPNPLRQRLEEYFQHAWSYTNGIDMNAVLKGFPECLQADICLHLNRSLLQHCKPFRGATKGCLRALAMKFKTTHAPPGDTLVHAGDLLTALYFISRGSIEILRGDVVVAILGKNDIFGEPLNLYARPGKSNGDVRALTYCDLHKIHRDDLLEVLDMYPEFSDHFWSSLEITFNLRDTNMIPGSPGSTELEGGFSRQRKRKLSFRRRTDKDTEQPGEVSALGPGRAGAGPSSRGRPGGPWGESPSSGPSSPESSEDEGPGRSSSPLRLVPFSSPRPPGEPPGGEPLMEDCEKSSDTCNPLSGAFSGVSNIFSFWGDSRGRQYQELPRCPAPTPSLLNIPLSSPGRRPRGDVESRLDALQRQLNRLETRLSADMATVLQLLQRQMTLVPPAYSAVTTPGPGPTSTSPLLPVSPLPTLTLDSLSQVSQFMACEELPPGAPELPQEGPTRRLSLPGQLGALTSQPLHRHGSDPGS
protocol-text: primary screen, population patch clamp on CHO cells stably expressing hERG; higher = less effect of the substance
Protocol: Briefly, Chinese hamster ovary (CHO) cells stably expressing the hERG channel were dislodged from tissue culture flasks and dispensed into PPC plates. […] During the recording, background leak currents were estimated by a 100 ms step to -80 mV from an initial holding potential of -70 mV and subtracted from the subsequent current measurement. The campaign was conducted in two phases using slight differences in recording protocol. […]
Hit rate of the full screen: of about 310,000 compounds, about 14,000 (4.5%) showed an effect of 50% or more. Effects have a minus sign here. This is one part of a sample in which strong results are shown more often than they occur.
observable: hERG current change (%, negative = inhibition) at 10uM (%)
Lab book: enter the figure in %, no units written.

Cn1c(=O)c2nc(NCc3ccccc3)cnc2n(C)c1=O; -1.44
O=C1CCCN1CCCNS(=O)(=O)c1cccc(F)c1; 25.9

I'd like to know its hERG current change (%, negative = inhibition) at 10uM. The molecule in question is CCN(CC(=O)NCc1ccc(F)cc1)C(=O)C1CCN(C(=O)Nc2ccccc2)CC1 -7.79

// same read-out, input: Fc1ccc(N2CCN(c3nc(CN4CCOCC4)nc4scc(-c5ccccc5)c34)CC2)cc1 -5.05

// same read-out, input: CC(=O)Nc1ccc(S(=O)(=O)N(CC(=O)O)Cc2ccccc2)cc1 -12.6

// same read-out, input: O=C(NC1CCCCC1)c1ccccc1NC(=O)C1CC(=O)N(c2ccccc2)C1 (centres unmarked) -76.8

// same read-out, input: CCOC(=O)C(NC(=O)Nc1ccc(C(N)=O)cc1)(c1ccccc1)C(F)(F)F (centres unmarked) -14.6

// same read-out, input: O=C(O)C(=O)O.c1ccc(CNc2nc(CN3CCOCC3)nc3scc(-c4ccccc4)c23)cc1 -20.6

// same read-out, input: CCCSC1=C(C#N)C(c2ccc(O)c(OC)c2)CC(=O)N1 (centres unmarked) -45.1

// same read-out, input: Cc1ccc(N2CC(C(=O)Nc3ccccc3C(=O)NC3CCCCC3)CC2=O)cc1C (centres unmarked) -17.9

// same read-out, input: COc1ccccc1/C=N/NC(=O)c1ccc(CN2C(=O)c3cccc4cccc2c34)cc1 2.35

// same read-out, input: O=C(O)c1ccc(/C=C/c2nc3sc4c(c3c(=O)[nH]2)CCC4)cc1 14.2

// same read-out, input: COc1ccc(N2CC(C(=O)Nc3ccccc3C(=O)NC3CC3)CC2=O)cc1 (centres unmarked) -38.8

// same read-out, input: COc1ccccc1NC(=O)CSc1nc2sc3c(c2c(=O)n1-c1ccccc1)CCN(C)C3 -26

// same read-out, input: OCC1CCCN(c2ncnc3scc(-c4ccccc4)c23)C1 (centres unmarked) 3.73

* * *

target-or-test-system: human ether-à-go-go-related gene (hERG) potassium channel (human, UniProt Q12809);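 further: peak tail current of the secondary pulse compared with the same well before compound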
protocol-text: primary screen, population patch clamp on CHO cells stably expressing hERG; higher = less effect of the substance
The campaign covered roughly 310,000 compounds. About 14,000 (4.5%) showed an effect of 50% or more. The effect is printed as a negative number. The entries come from a sample that favours strong results as a whole.
observable: hERG current change (%, negative = inhibition) at 10uM (%)
Lab book: enter the figure in %, no units written.

OCCC1CN(Cc2nc(-c3ccccc3)cs2)CCN1C1CCCC1 (centres unmarked); -66.4
CC(=O)c1ccc(NC(=O)COC(=O)c2ccccc2Sc2ccccc2C#N)cc1; 18
O=C(NCc1cccs1)c1cc(-c2cccc(Cl)c2)on1; -16.1
CN(C)c1ccc(/C=N/NC(=O)CCCO)cc1; 24.4
O=C(NCC(c1ccco1)N1CCc2ccccc2C1)c1ccc(Cl)cc1 (centres unmarked); -47.8
Cc1ccc(S(=O)(=O)N2CCCCC2)cc1NC(=O)Cn1ccsc1=N.Cl; -33.7
CCN(CC)CCCNC(=O)c1cc(-c2ccc(O)cc2)on1; -37.3
O=C(NCCN1CCOCC1)c1cc(-c2cccc(Cl)c2)on1; -4.73

I'd like to know its hERG current change (%, negative = inhibition) at 10uM. The compound in question is O=C(CCSc1nnc(-c2ccncc2)o1)Nc1ccccc1Cl -10.9

// same read-out, input: O=C(CN1CCCC1)Nc1ccc(NC(=O)Nc2ccccc2)cc1 6.42

// same read-out, input: Cn1cc(P(=O)(N2CCOCC2)N2CCOCC2)cc1P(=S)(N1CCOCC1)N1CCOCC1 16.6

// same read-out, input: O=C(NCC(c1ccco1)N1CCc2ccccc2C1)C(=O)Nc1ccc(F)cc1F (centres unmarked) -0.136

// same read-out, input: CNS(=O)(=O)c1cccc(C(=O)NCC(c2cccs2)N(C)C)c1 (centres unmarked) -5.25

// same read-out, input: O=C(Cc1cccs1)Nc1cc(S(=O)(=O)N2CCCCC2)ccc1Cl -0.378

// same read-out, input: COc1cccc(N2C(=O)CN(Cc3ccc(OC)c(OC)c3)C2=S)c1 17

// same read-out, input: O=C(NCC(c1ccco1)N1CCc2ccccc2C1)c1ccc(Br)cc1 (centres unmarked) -12.6

// same read-out, input: O=C(NCC(c1ccco1)N1CCc2ccccc2C1)c1ccc(F)cc1 (centres unmarked) -10.7

// same read-out, input: O=C(NCC(c1ccco1)N1CCc2ccccc2C1)c1ccccc1 (centres unmarked) -19

// same read-out, input: Cc1ccc(C(=O)NCC(c2ccco2)N2CCc3ccccc3C2)cc1C (centres unmarked) -5.02

// same read-out, input: O=C(CNCc1cccs1)Nc1cc(S(=O)(=O)N2CCCC2)ccc1Cl -52

// same read-out, input: N#Cc1cc(Oc2ccc(Cl)cc2)c(N2CCOCC2)cc1C#N -1.79

// same read-out, input: OCCC1CN(Cc2ccncc2)CCN1C1CCCC1 (centres unmarked) -8.58

// same read-out, input: CCOC(=O)/C(C#N)=N/Nc1c(S(=O)(=O)Cc2ccco2)csc1C(=O)OC 11.4

// same read-out, input: Cc1oc(-c2cccs2)nc1CN1CCN(CCC(C)C)C(CCO)C1 (centres unmarked) -27.6

// same read-out, input: COC(=O)c1sc(S(=O)(=O)NCCC(=O)O)c(C(=O)OC)c1C 5.17

// same read-out, input: O=C1NC(=S)S/C1=C/c1ccc(Oc2cnccn2)cc1 20

// same read-out, input: CN(CC(=O)Nc1cc(S(=O)(=O)N2CCCC2)ccc1Cl)Cc1cccs1 -16

// same read-out, input: Cc1ccc2c(c1)N(CCC(=O)NCCCN1CCCC1)C(=O)CO2 12.7

// same read-out, input: COc1ccc(C(CNC(=O)c2cccc(S(=O)(=O)N3CCCC3)c2)N2CCCC2)cc1 (centres unmarked) -22.9

* * *

target-or-test-system: human ether-à-go-go-related gene (hERG) potassium channel (human, UniProt Q12809);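 further: peak tail current of the secondary pulse compared with the same well before compound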
protocol-text: primary screen, population patch clamp on CHO cells stably expressing hERG; higher = less effect of the substance
Among all 310,000 compounds or so, about 14,000 (4.5%) showed an effect of 50% or more. The effect is printed as a negative number. This is one part of a sample in which strong results are shown more often than they occur.
observable: hERG current change (%, negative = inhibition) at 10uM (%)
Lab book: enter the figure in %, no units written.

As a guide, the following entries are already answered.
C=CCNC(=O)/C(=C/c1ccccc1OCC)NC(=O)c1ccccc1; 2.63
O=C(Nc1ccc(Cl)cc1C(=O)c1ccccc1)c1ccccc1; 3.76
CN1CCN(c2ncc3c(n2)CC(c2ccccc2F)CC3=O)CC1 (stereo not shown); -4.43
C[N+](C)(C)CC(=O)Nc1ccc(Cl)cc1C(=O)c1ccccc1.[Br-]; 21.4
Cc1cc(C)c(Cn2ncn(-c3ccc(Br)cc3)c2=O)c(C)c1; 19.4

I'd like to know its hERG current change (%, negative = inhibition) at 10uM. The molecule in question is CCN(CC)CC(=O)Nc1ccc(Cl)cc1C(=O)c1ccccc1 -21.2

// same read-out, input: Cc1onc(-c2ccccc2Cl)c1C(=O)Nc1nc2ccc(S(C)(=O)=O)cc2s1 -2.5

// same read-out, input: CC(=O)c1cnc(Oc2cc(Cl)ccc2Cl)nc1C 0.763

// same read-out, input: CCN(CC)CCNCC(=O)Nc1ccc(Cl)cc1C(=O)c1ccccc1.O=C(O)C(=O)O -75.2

// same read-out, input: CCCCC(NC(=O)Cc1c(C)c2cc3c(-c4ccccc4)coc3c(C)c2oc1=O)C(=O)O (stereo not shown) 13.2

* * *

target-or-test-system: human ether-à-go-go-related gene (hERG) potassium channel (human, UniProt Q12809);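 further: peak tail current of the secondary pulse compared with the same well before compound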
protocol-text: primary screen, population patch clamp on CHO cells stably expressing hERG; higher = less effect of the substance
Among all 310,000 compounds or so, about 14,000 (4.5%) showed an effect of 50% or more. Effects have a minus sign here. For the sample, strong results were picked, then their nearest neighbours and some compounds at random.
observable: hERG current change (%, negative = inhibition) at 10uM (%)
Lab book: enter the figure in %, no units written.

As a guide, the following entries are already answered.
Cc1ccc(CN2CCN(CC(=O)NCc3ccc(Cl)cc3)C2=O)cc1; -50.4
CCOCCCN(C(=O)c1snc(C(N)=O)c1N)C(C(=O)NC1CCCC1)c1ccc(O)cc1 (stereo not drawn); 3.52
Cc1ccc(CN2CCN(CC(=O)O)C2=O)cc1; 41.5
CCCn1ncc2c(Nc3ccc(C)c(C)c3)ncnc21; -25.2
Cc1ccc(CN2CCN(CC(=O)N3CCc4ccccc4C3)C2=O)cc1; -50.8

I'd like to know its hERG current change (%, negative = inhibition) at 10uM. The compound in question is Cc1ccc(-n2c(C)nnc2SCC(=O)N2CCc3ccccc3C2)cc1 -53.3

// same read-out, input: CCN(CCNC(=O)CN1CCN(Cc2ccc(Cl)cc2)C1=O)c1ccccc1 -52

// same read-out, input: OCCNc1nc2nonc2nc1NCCO 11

// same read-out, input: COCCCNC(=O)CN1CCN(Cc2ccc(Cl)cc2)C1=O 1.74

// same read-out, input: CNC(=O)c1ccccc1Sc1ccccc1CO 27.9

// same read-out, input: O=C(O)C1C2CCC(C2)C1C(=O)NCc1ccccn1 (stereo not drawn) 16.1

// same read-out, input: Cc1nnc(SCC(=O)N2CCc3ccccc3C2)n1-c1ccccc1 -23.6

// same read-out, input: CCCN(CC1CC1)C(=O)COC(=O)c1oc2c(F)cccc2c1C -52.8

// same read-out, input: O=C(Nc1ccccc1NC(=O)NC1CCCCC1)NC1CCCCC1 0.961

// same read-out, input: COc1ccc(OC)c(S(=O)(=O)n2nnc3cc(Cl)ccc32)c1 4.31

// same read-out, input: Cc1ccc(CN2CCN(CC(=O)N3CCC(C(N)=O)CC3)C2=O)cc1 5.43
